Experimental system: Renilla luciferase (Renilla reniformis, UniProt P27652)
Sequence (P27652 whole entry): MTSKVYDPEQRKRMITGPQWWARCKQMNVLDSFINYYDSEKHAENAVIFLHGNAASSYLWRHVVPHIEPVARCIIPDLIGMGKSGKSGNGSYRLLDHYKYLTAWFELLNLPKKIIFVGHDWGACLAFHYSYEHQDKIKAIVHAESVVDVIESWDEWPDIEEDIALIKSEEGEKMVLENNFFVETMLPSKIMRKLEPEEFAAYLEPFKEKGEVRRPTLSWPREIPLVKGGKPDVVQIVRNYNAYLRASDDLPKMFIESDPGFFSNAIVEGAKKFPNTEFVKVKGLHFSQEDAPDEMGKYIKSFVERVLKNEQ
Measurement description: Detergent titration with Tergitol NP-9, digitonin or no lysing agent, Renilla luciferase (Example 4)
Type: biochemical
Assay setup: 0.0500% detergent; Water (no lysing agent); read-out: Relative Renilla Luc Intensity
Below: a set of entries, each annotated with reported remaining activity at 0.05 %.
Entry format: amount then unit.

# Compound, remaining activity at 0.05 %
measured = [
    ("Cc1cc(C)c(C[N+](C)(C)C)cc1C.[Br-]", "0.03%"),
]

Answer with reported remaining activity at 0.05 % of CCCCCCCCCCCC[N+](C)(C)Cc1ccccc1.[Br-] [Benzyldimethyldodecylammonium bromide]
0.02%

Answer with reported remaining activity at 0.05 % of CCCCCCCCCCCCCC[N+](C)(C)Cc1ccccc1.[Br-] [Benzyldimethyltetradecylammonium bromide]
0.02%

Read off the recorded remaining activity at 0.05 % for CCCCCCCCCCCC[N+](C)(C)C.[Br-] [Dodecyltrimethylammonium bromide]
2%

Give the measured remaining activity at 0.05 % for CCCCC[N+](CCCCC)(CCCCC)CCCCC.[Br-] [Tetrapentylammonium bromide]
37%

Specify remaining activity at 0.05 % for CCCCCCCCCCCCCCCC[N+](C)(C)C.[Cl-] [Cetyltrimethylammonium chloride] and stop.
0.02%
